Cholecystokinin receptor type A (Homo sapiens, UniProt P32238) data, read-out AC50; further: assay procedure not described here
Sequence (P32238 whole entry): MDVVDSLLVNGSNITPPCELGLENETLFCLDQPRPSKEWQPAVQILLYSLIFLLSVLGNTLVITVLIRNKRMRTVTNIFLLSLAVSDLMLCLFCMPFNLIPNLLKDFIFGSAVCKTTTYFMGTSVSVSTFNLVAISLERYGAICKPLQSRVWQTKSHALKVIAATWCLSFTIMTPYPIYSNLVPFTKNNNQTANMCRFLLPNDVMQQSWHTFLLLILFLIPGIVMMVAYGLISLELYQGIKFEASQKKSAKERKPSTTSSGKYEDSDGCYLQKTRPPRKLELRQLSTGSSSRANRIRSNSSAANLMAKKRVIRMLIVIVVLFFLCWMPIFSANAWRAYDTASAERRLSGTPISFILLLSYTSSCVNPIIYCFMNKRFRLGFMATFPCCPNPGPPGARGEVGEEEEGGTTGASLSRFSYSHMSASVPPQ

Reference set (3 entries):
# compound, measurement_target, endpoint, meas_value
rows = [
    ("NC(=O)C[S+]([O-])C(c1ccccc1)c1ccccc1 (stereo not given)", "Cholecystokinin receptor type A (Homo sapiens, UniProt P32238)", "AC50", "> 30 µM"),
    ("CN(C)CCCN1c2ccccc2Sc2ccccc21", "Cholecystokinin receptor type A (Homo sapiens, UniProt P32238)", "AC50", "> 30 µM"),
    ("COC(=O)[C@H]1[C@@H](OC(=O)c2ccccc2)C[C@@H]2CC[C@H]1N2C", "Cholecystokinin receptor type A (Homo sapiens, UniProt P32238)", "AC50", "> 30 µM"),
]

Given the entry N[C@@H](CSCC(=O)O)C(=O)O , report its measured AC50.
> 30 µM

What would you report for CN1CCC2=C(C1)C(c1ccccc1)c1ccccc12 (stereo not given) ?
> 10 µM

###

- measurement_target: D(1A) dopamine receptor (Homo sapiens); further: assay procedure not described here
- Sequence (P21728 whole entry): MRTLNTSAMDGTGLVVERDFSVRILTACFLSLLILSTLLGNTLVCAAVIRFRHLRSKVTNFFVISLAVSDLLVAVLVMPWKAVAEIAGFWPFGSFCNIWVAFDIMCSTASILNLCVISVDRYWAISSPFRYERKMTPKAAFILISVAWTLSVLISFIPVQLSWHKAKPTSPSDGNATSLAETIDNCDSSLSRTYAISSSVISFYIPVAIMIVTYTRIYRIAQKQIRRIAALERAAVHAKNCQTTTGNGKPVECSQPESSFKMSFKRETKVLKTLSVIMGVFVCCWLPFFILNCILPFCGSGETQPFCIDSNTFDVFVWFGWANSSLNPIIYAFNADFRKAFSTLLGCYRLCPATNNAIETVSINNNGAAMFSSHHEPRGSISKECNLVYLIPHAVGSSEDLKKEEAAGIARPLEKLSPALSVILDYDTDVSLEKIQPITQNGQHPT
AC50: recorded values

# compound, measurement_target, AC50
measured = [
    ("NC(=O)C[S+]([O-])C(c1ccccc1)c1ccccc1 (stereo not given) [MODAFINIL]", "D(1A) dopamine receptor (Homo sapiens)", "> 10 µM"),
    ("CCN(CC)CCNC(=O)c1cc(Cl)c(N)cc1OC [METOCLOPRAMIDE]", "D(1A) dopamine receptor (Homo sapiens)", "> 10 µM"),
    ("O=C(CCCCCCC(=O)Nc1ccccc1)NO [VORINOSTAT]", "D(1A) dopamine receptor (Homo sapiens)", "> 10 µM"),
    ("O=P(O)(O)C(O)(Cc1cccnc1)P(=O)(O)O [RISEDRONIC ACID]", "D(1A) dopamine receptor (Homo sapiens)", "> 10 µM"),
]

Given the entry CCOC(=O)[C@H](CCc1ccccc1)N[C@@H](C)C(=O)N1CCC[C@H]1C(=O)O , report its measured AC50.
> 10 µM

###

- measurement_target: Neuropeptide Y receptor type 1 (Homo sapiens, UniProt P25929); further: assay procedure not described here
- Sequence (P25929 whole entry): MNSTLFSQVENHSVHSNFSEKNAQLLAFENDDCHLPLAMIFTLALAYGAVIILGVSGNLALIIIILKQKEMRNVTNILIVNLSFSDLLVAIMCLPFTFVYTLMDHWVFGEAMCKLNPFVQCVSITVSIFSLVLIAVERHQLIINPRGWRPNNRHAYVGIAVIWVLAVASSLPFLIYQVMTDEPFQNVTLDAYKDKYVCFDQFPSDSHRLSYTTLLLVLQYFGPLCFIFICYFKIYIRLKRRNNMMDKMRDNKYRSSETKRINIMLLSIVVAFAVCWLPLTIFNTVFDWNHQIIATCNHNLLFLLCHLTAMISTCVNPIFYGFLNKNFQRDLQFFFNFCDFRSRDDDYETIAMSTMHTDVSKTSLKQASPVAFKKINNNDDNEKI
endpoint: AC50

# molecule, AC50
data = [
    ("CN1CC(=O)N2[C@H](c3ccc4c(c3)OCO4)c3[nH]c4ccccc4c3C[C@@H]2C1=O", "> 30 µM"),
    ("C[C@]12CCC(=O)C=C1CC[C@@H]1[C@@H]2CC[C@@]2(C)[C@H]1CC[C@]2(C)O [METHYLTESTOSTERONE]", "> 30 µM"),
    ("NC[C@H]1CC[C@H](C(=O)O)CC1 [TRANEXAMIC ACID]", "> 10 µM"),
    ("C[C@H]1O[C@H](O[C@H]2[C@H](O)[C@@H](O)[C@@H](O[C@H]3[C@H](O)[C@@H](O)C(O)O[C@@H]3CO)O[C@@H]2CO)[C@H](O)[C@@H](O)[C@@H]1N[C@H]1C=C(CO)[C@@H](O)[C@H](O)[C@H]1O (some centres undefined) [ACARBOSE]", "> 30 µM"),
    ("CN(C)C(=O)OC1N=C(c2ccccc2)c2cc(Cl)ccc2N(C)C1=O (centres undefined) [CAMAZEPAM]", "> 30 µM"),
]

Kindly state the measured AC50 obtained for CC[C@]1(O)C[C@@H]2CN(CCc3c([nH]c4ccccc34)[C@@](C(=O)OC)(c3cc4c(cc3OC)N(C)[C@H]3[C@@](O)(C(N)=O)[C@H](O)[C@]5(CC)C=CCN6CC[C@]43[C@@H]65)C2)C1 [VINDESINE] with Neuropeptide Y receptor type 1 (Homo sapiens, UniProt P25929).
> 30 µM

What would you report for CCCCCCC(C)(C)c1cc(O)c2c(c1)OC(C)(C)C1CCC(=O)CC21 (centres undefined) [NABILONE] ?
> 30 µM

What would you report for Cc1cc(-c2ccccc2)nnc1NCCN1CCOCC1 [MINAPRINE] ?
> 30 µM

What would you report for COc1ccc(C(=O)N2CCN(c3ccc4c(c3)CCC(=O)N4)CC2)cc1OC [VESNARINONE] ?
> 30 µM

What would you report for CCCCCOC(=O)Nc1nc(=O)n([C@@H]2O[C@H](C)[C@@H](O)[C@H]2O)cc1F [CAPECITABINE] ?
> 30 µM

What would you report for CC(C)C(=O)Nc1ccc([N+](=O)[O-])c(C(F)(F)F)c1 [FLUTAMIDE] ?
> 30 µM

What would you report for COC(=O)[C@@H]1CC2=CC(=O)CC[C@]2(C)[C@@]23O[C@@H]2C[C@@]2(C)[C@@H](CC[C@@]24CCC(=O)O4)[C@H]13 [EPLERENONE] ?
> 30 µM

What would you report for C#CC1(OC(N)=O)CCCCC1 [ETHINAMATE] ?
> 10 µM

###

UniProt:P35367 data, read-out AC50
Sequence (P35367 whole entry): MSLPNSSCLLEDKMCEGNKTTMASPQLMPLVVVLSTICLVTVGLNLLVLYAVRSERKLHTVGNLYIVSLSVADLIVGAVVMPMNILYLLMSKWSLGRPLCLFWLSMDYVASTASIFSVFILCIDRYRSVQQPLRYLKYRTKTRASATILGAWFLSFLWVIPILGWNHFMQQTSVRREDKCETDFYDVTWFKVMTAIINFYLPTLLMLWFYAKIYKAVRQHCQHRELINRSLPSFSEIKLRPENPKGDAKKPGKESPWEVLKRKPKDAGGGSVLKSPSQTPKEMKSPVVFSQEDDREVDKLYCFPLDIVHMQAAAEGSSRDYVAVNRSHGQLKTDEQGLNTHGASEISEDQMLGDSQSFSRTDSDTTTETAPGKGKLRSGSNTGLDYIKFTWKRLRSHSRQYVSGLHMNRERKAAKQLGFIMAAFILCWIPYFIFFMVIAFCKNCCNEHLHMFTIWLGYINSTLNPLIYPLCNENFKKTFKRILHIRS

# molecule, meas_value
rows = [
    ("Nc1ncnc2c1ncn2[C@@H]1O[C@H](COP(=O)(O)O)[C@@H](O)[C@H]1O [ADENOSINE PHOSPHATE]", "> 30 µM"),
]

Given the entry OCc1cc([C@@H](O)CNCCCCCCOCCOCc2c(Cl)cccc2Cl)ccc1O , report its measured AC50.
> 30 µM

###

- measurement_target: Mu-type opioid receptor (Homo sapiens); further: assay procedure not described here
- Sequence (P35372 whole entry): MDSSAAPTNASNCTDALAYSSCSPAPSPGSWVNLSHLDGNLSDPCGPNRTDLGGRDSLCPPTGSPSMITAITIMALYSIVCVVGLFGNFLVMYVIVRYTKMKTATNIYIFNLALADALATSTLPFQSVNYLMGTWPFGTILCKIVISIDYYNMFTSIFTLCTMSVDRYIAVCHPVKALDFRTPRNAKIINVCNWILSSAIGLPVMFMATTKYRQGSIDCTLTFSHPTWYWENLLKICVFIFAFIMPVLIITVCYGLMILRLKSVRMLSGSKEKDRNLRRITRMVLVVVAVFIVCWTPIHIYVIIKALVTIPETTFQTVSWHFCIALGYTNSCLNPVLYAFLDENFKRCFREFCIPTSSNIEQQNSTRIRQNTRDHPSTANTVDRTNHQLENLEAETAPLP
endpoint: AC50

Reference set (2 entries):
# smiles_str, measurement_target, AC50
rows = [
    ("CCS(=O)(=O)N1CC(CC#N)(n2cc(-c3ncnc4[nH]ccc34)cn2)C1", "Mu-type opioid receptor (Homo sapiens)", "> 30 µM"),
    ("C[N+]1(C)[C@@H]2C[C@@H](OC(=O)[C@H](CO)c3ccccc3)C[C@H]1[C@@H]1O[C@@H]12", "Mu-type opioid receptor (Homo sapiens)", "> 30 µM"),
]

Given the entry O=C(Cn1ccnc1[N+](=O)[O-])NCc1ccccc1 , report its measured AC50.
> 30 µM

###

AC50: recorded values
- measurement_target: Alpha-1A adrenergic receptor (Homo sapiens); further: assay procedure not described here
- Sequence (P35348 whole entry): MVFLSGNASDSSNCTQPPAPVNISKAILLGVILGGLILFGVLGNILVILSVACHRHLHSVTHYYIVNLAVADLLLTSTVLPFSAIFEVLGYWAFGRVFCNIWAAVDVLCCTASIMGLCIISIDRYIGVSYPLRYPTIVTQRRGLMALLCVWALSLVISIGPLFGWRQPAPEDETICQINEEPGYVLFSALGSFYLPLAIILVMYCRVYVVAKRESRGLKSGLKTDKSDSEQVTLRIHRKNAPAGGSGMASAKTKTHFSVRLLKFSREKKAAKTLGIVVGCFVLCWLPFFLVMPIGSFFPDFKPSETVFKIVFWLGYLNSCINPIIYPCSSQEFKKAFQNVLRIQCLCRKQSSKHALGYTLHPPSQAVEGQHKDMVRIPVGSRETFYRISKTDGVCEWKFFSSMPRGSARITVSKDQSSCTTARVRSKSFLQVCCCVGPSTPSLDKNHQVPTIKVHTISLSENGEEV
- Format: functional, cell-based

Reference set (5 entries):
# compound, measurement_target, AC50
rows = [
    ("O=P(O)(O)C(O)(Cc1cccnc1)P(=O)(O)O", "Alpha-1A adrenergic receptor (Homo sapiens)", "> 30 µM"),
    ("CN(CCCN1c2ccccc2CCc2ccccc21)CC(=O)c1ccc(Cl)cc1", "Alpha-1A adrenergic receptor (Homo sapiens)", "> 30 µM"),
    ("N[C@@H](C(=O)N[C@@H]1C(=O)N2C(C(=O)O)=C(Cl)CS[C@H]12)c1ccccc1 [CEFACLOR ANHYDROUS]", "Alpha-1A adrenergic receptor (Homo sapiens)", "> 30 µM"),
    ("Cc1nc2ccc(CN(C)c3ccc(C(=O)N[C@@H](CCC(=O)O)C(=O)O)s3)cc2c(=O)[nH]1", "Alpha-1A adrenergic receptor (Homo sapiens)", "> 30 µM"),
    ("CCN1CCC[C@H]1CNC(=O)c1cc(S(N)(=O)=O)ccc1OC [LEVOSULPIRIDE]", "Alpha-1A adrenergic receptor (Homo sapiens)", "> 30 µM"),
]

Given the entry CN[C@@H](C)[C@H](O)c1ccccc1 , report its measured AC50.
13 µM

What would you report for CN1C(=O)N(C)C2C1N(C)C(=O)N2C (centres undefined) ?
> 30 µM

What would you report for CN(C/C=C/c1ccccc1)Cc1cccc2ccccc12 ?
> 30 µM

What would you report for CCN(CC)CCOC(=O)c1ccc(N)cc1 ?
> 30 µM

###

AC50: recorded values
- measurement_target: Glucocorticoid receptor (Homo sapiens); further: assay procedure not described here
- Sequence (P04150 whole entry): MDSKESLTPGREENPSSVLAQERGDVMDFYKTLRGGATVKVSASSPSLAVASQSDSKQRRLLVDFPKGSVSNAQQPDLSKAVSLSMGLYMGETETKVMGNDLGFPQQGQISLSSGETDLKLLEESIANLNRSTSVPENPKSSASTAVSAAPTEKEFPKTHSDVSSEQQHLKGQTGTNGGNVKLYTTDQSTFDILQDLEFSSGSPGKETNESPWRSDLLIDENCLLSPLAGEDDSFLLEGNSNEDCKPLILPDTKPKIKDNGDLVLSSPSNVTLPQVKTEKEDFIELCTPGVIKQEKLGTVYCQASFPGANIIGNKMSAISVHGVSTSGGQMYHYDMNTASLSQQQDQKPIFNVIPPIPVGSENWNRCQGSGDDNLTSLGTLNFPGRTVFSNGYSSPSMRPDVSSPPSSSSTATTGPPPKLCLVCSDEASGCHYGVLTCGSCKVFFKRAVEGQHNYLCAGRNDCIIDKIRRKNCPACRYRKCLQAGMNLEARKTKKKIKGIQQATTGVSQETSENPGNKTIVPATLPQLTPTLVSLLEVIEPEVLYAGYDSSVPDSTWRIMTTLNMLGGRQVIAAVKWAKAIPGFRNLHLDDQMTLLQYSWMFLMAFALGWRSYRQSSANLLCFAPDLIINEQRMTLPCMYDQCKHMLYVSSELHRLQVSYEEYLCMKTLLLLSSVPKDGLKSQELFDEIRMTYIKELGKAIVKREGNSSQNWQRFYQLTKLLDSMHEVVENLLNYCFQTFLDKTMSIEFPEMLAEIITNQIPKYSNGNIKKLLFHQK
- Type: functional

Reference set (5 entries):
# compound, AC50
measured = [
    ("CC(N)Cc1ccccc1 (stereo unspecified)", "> 30 µM"),
    ("CC(C)Cc1ccc(CC(=O)O)cc1", "> 30 µM"),
    ("CO/N=C(\\C(=O)N[C@@H]1C(=O)N2C(C(=O)[O-])=C(C[N+]3(C)CCCC3)CS[C@H]12)c1csc(N)n1", "> 300 µM"),
    ("Cc1ccc(C(=O)c2cc(O)c(O)c([N+](=O)[O-])c2)cc1", "14 µM"),
    ("CC(C)NNC(=O)c1ccncc1", "> 30 µM"),
]

// moving on: another record for AC50
Given the entry CN1CCCC(n2nc(Cc3ccc(Cl)cc3)c3ccccc3c2=O)CC1 (stereo unspecified) , report its measured AC50.
> 30 µM
